recorded metric: melting point

Known melting point results, listed for orientation:
[
  {
    "compound": "Cc1cccc(-c2ccc3c(C(N)=O)nn(-c4ccc(S(N)(=O)=O)cc4)c3c2)c1",
    "recorded metric": "melting point",
    "result": "261 to 263 °C"
  },
  {
    "compound": "N#Cc1cc([N+](=O)[O-])ccc1NC(=O)c1cccc([N+](=O)[O-])c1",
    "recorded metric": "melting point",
    "result": "205 to 206 °C"
  },
  {
    "compound": "O=C(CC1CCN(CCCn2c(=O)[nH]c3ccccc32)CC1)c1ccc(F)cc1",
    "recorded metric": "melting point",
    "result": "208 °C"
  }
]

Data request: Request the reported melting point associated with COC(=O)C(=C(C)NCC(O)CO)c1nc(NC(C)=O)c([N+](=O)[O-])nc1Cl (configuration not stated)
Data returned: 70 to 73 °C

Data request: Request the reported melting point associated with O=C(O)c1cn(C2CCN(c3c(F)cc4c(=O)c(C(=O)O)cn(C5CC5)c4c3F)C2)nn1 (configuration not stated)
Data returned: 222 to 225 °C

Data request: Request the reported melting point associated with CC(=O)Nc1ccccc1CS(=O)c1nccn1-c1ccccn1 (configuration not stated)
Data returned: 172 to 173 °C

Data request: Request the reported melting point associated with `CCc1cccc(CC)c1NC(=O)c1c(-c2ccccc2)oc(C)cc1=O`
Data returned: 186 to 189 °C

Data request: Request the reported melting point associated with `CN(C(=O)C(F)(F)F)C1(C)CN(c2cc3c(cc2F)c(=O)c(C(=O)O)cn3C2CC2)C1`
Data returned: 210 to 215 °C
